biological target: rat TAAR1 (Rattus norvegicus (Rat), UniProt Q923Y9); test: Radioligand binding assay on rat TAAR1; settings: rat TAAR1 (second value of the cell), HEK-293 membranes; read-out: Ki (μM) mouse/rat
Sequence (Q923Y9 whole entry): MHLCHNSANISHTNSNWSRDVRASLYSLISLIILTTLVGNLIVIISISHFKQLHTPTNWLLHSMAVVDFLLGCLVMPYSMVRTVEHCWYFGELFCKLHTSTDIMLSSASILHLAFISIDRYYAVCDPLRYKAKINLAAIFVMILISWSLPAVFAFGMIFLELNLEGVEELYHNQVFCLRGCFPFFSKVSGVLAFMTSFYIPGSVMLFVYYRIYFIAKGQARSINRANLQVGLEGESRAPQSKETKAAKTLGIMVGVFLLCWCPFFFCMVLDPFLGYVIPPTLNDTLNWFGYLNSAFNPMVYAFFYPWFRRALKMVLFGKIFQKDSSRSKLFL
MEASURED ENDPOINT: Ki

# count of solved cases: 6
- COMPOUND: "FC(F)(F)c1ccnc(Nc2ccc([C@@H]3CNCCO3)cc2)n1 [Example 173]"
  OBSERVED MEASUREMENT: "0.0625 µM"
- COMPOUND: "Fc1cc([C@H]2CNCCO2)ccc1Nc1ncc(C2CC2)cn1 [Example 119]"
  OBSERVED MEASUREMENT: "0.0051 µM"
- COMPOUND: "FC(F)(F)c1cnc(Nc2ccc([C@@H]3CNCCO3)c(Cl)c2)nc1 [Example 204]"
  OBSERVED MEASUREMENT: "0.0021 µM"
- COMPOUND: "Clc1cnc(Nc2ccc([C@H]3CNCCO3)cc2)nc1 [Example 104]"
  OBSERVED MEASUREMENT: "0.105 µM"
- COMPOUND: "CCc1cnc(Nc2ccc(C3CNCCO3)cc2C)nc1 (racemic) [Example 88]"
  OBSERVED MEASUREMENT: "0.0874 µM"
- COMPOUND: "Clc1ccc2nc(Nc3ccc([C@H]4CNCCO4)cc3)sc2c1 [Example 26]"
  OBSERVED MEASUREMENT: "0.0083 µM"

Below are 3 compounds. Give each one its Ki.
1. FC(F)(F)c1cnc(Nc2ccc([C@H]3CNCCO3)cc2)nc1 [Example 19]
2. FC(F)Oc1cnc(Nc2ccc([C@@H]3CNCCO3)cc2)nc1 [Example 179]
3. Fc1cc(C2CNCCO2)ccc1Nc1ccc(Cl)cn1 (racemic) [Example 99]

Result block:
0.0236 µM
0.0517 µM
0.0185 µM
